System: NCI-H522
Assay: NCI tumour cell line growth inhibition, 48 h
Active and inactive are the calls of the source. Rule as the data show it: active = GI50 up to about 1.1 µM and inactive = higher.
Classes used: active, inactive

molecule: CC(C)C(Cl)CC/C(CBr)=C(\Cl)CCl (stereo not given)
study_target: NCI-H522
label_class: active
//
molecule: CC(=O)Oc1cc2c(c3ncccc13)OC(C)(C)C2
study_target: NCI-H522
label_class: inactive
//
molecule: O=C1c2c(c(-c3ccccc3)c(-c3ccccc3)c(-c3ccccc3)c2-c2ccccc2)C(=O)N1c1cccc(Br)c1
study_target: NCI-H522
label_class: inactive
//
molecule: CCOC(CCCN1CCC2(CC1)C(=O)N(C)CN2c1ccccc1)(OCC)c1ccc(F)cc1
study_target: NCI-H522
label_class: inactive
//
molecule: CN1C(OCc2ccccc2)c2c(ccc3c2OCO3)C2C=Cc3cc4c(cc3C21)OCO4 (stereo not given)
study_target: NCI-H522
label_class: active
//
molecule: COc1c2c(c(OC)c3c(=O)cc(C/C(=N/NC(=O)C[n+]4ccccc4)C(=O)Nc4cc(C)ccc4C)oc13)OCO2
study_target: NCI-H522
label_class: inactive
//
molecule: CC(=O)N1c2ccccc2N(C(C)=O)C1c1ccc(C2N(C(C)=O)c3ccccc3N2C(C)=O)[nH]1
study_target: NCI-H522
label_class: inactive
//
molecule: O=C(/C=N/c1ccccc1S)c1ccco1
study_target: NCI-H522
label_class: inactive
//
molecule: CC(C)(O)c1cc2c(cc1C(C)(C)O)-c1ccccc1-2
study_target: NCI-H522
label_class: inactive
//
molecule: Nn1c(CCCCCCCCc2nnc(COc3ccc(Cl)cc3Cl)n2N)nnc1COc1ccc(Cl)cc1Cl
study_target: NCI-H522
label_class: inactive

====

Tested on: K562
Assay: NCI tumour cell line growth inhibition, 48 h
Active and inactive are the calls of the source. Cut-off read from the data, not from the text of the source: active = GI50 up to about 1.1 µM and inactive = higher.
Classes used: True for active, False for inactive

molecule: O=C(Cl)c1cc([N+](=O)[O-])cc([N+](=O)[O-])c1
label_class: False

molecule: O=C1/C(=C\c2ccc(O)cc2)CCC/C1=C/c1ccc(Cl)c(Cl)c1
label_class: False

molecule: Cc1nc2c(s/c(=N\N)n2-c2ccccc2)c(=O)n1C
label_class: False

molecule: O=C1CC[C@@]2(O)[C@H]3Cc4ccc(-c5ccccc5)c5c4[C@@]2(CCN3CC2CC2)[C@H]1O5
label_class: False

molecule: Cc1ccc(S(=O)(=O)N/N=C/c2oc(-c3ccncc3)c(-c3ccncc3)c2[N+](=O)[O-])cc1
label_class: False

molecule: CO[C@H]1Nc2c(ccc(C)c2O)C(=O)N2C=C(/C=C/C(N)=O)C[C@@H]12 [ANTHRAMYCIN METHYL ETHER]
label_class: True

molecule: N[C@H](C(=O)O)[C@@H]1CC(Cl)=NO1 [ACIVICIN]
label_class: False

molecule: N#CNc1nc(N)c(-c2ccc(Cl)cc2)c(C(=O)Nc2nccs2)n1
label_class: False

molecule: O=C1c2c(ccc3c2CCCC3)CC12Cc1ccc3c(c1C2=O)CCCC3
label_class: False

====

Test system: SK-MEL-28
Experiment: NCI tumour cell line growth inhibition, 48 h
Calls of active or inactive are those of the source. Cut-off read from the data, not from the text of the source: active = GI50 up to about 1.1 µM and inactive = higher.
// reported GI50 for each item listed

compound: COc1cc(NCc2ccc3nc(OC)c(OC)nc3c2)cc(OC)c1OC
GI50: > 100 µM (inactive)
--
compound: NS(=O)(=O)c1ccc(Nc2c3ccccc3nc3c(C(=O)NCCCN(CCO)CCO)cccc23)cc1
GI50: 22.4 µM (inactive)
--
compound: O=C(/C=C/c1ccccc1O)c1ccccc1Cl
GI50: > 100 µM (inactive)
--
compound: O=C(N/N=C\c1ccc([N+](=O)[O-])cc1)Nc1ccc2ccccc2c1
GI50: 46.5 µM (inactive)
--
compound: CCN(CC)Cc1cc(Nc2c3ccccc3nc3c2[nH]c2ccccc23)cc(CN(CC)CC)c1O
GI50: 2.4 µM (inactive)
--
compound: COC(=O)c1cc(C)ccc1C1CN=NC12Cc1cccc(C)c1C2=O (stereo not given)
GI50: 27.3 µM (inactive)
--
compound: CCCOc1ccc2sc(NC(=O)c3cc([N+](=O)[O-])cc([N+](=O)[O-])c3)nc2c1
GI50: 50.5 µM (inactive)
--
compound: N#Cc1c(-c2ccccc2)c(C=O)c(=O)n2c1[nH]c1ccccc12
GI50: 23.9 µM (inactive)
--
compound: COc1cc2c[n+](C)c3c4ccccc4ccc3c2cc1OC
GI50: 3.42 µM (inactive)
--
compound: COc1ccc(CCCCl)c(C2=NCCc3ccccc32)c1
GI50: > 100 µM (inactive)
